# TEST SUMMARY: Cytotoxicity to VERO cells
# Assay type: cell-based, African green monkey (Cercopithecus Aethiops)
# REPORTED CONDITIONS: African green monkey (Cercopithecus aethiops), IC50 (μM) Cytotoxicity VERO cells
OBSERVED PROPERTY: IC50 (µM)
Numbers only here, please. The scale is µM.

Worked examples follow.
COMPOUND: COc1ccc(C(=N)NC(C)C)cc1-c1cc(-c2cc(C(=N)NC(C)C)ccc2OC)on1.Cl.Cl [Compound 42, dihydrochloride]
OBSERVED PROPERTY: IC50
OBS VALUE: 21.7
--
COMPOUND: COc1ccc(C(=N)N)cc1-c1cc(-c2ccc(C(=N)N)cc2)on1.Cl.Cl [Compound 21, dihydrochloride]
OBSERVED PROPERTY: IC50
OBS VALUE: 213
--
COMPOUND: Cl.Cl.N=C(N)c1cccc(-c2cc(-c3ccc(C(=N)N)cc3[N+](=O)[O-])on2)c1 [Compound 16, dihydrochloride]
OBSERVED PROPERTY: IC50
OBS VALUE: 48

Ask: If you can, please state the reported IC50 value of CC(C)NC(=N)c1cccc(-c2cc(-c3cccc(C(=N)NC(C)C)c3)on2)c1.Cl.Cl [Compound 33, dihydrochloride] .
Result: 180
